- Target or system: recombinant human EP-2 receptor (Homo sapiens, UniProt P43116)
- Construct: stably transfected with full length cDNA encoding human Prostaglandin E2
- Sequence (P43116 whole entry): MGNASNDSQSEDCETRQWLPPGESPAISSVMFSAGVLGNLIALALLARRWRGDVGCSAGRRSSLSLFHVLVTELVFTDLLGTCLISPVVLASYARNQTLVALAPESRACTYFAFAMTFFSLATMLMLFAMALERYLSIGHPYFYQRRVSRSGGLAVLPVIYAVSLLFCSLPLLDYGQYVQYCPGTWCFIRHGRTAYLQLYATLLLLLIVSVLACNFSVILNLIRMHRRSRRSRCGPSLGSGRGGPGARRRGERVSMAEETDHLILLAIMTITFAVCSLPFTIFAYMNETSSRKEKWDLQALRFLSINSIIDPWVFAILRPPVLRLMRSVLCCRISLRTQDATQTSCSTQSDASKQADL
- Run description: In vitro antagonist potency against recombinant human prostaglandin E2 (EP-2) receptor in CHO cells (cAMP, Protocol 1)
- Condition info: CHO cells expressing recombinant human EP-2 receptor, stimulated with 5 nM PGE2; cAMP readout; Ki by Cheng-Prusoff equation; read-out: EP2 Ki
Recorded endpoint: Ki (nM)
# number only, unit nM dropped from output

Entry under test: O=C(Oc1ccc(F)cc1)N1CCC(COc2ccc(-c3ccc(F)cc3)cc2)(C(=O)O)C1 (single isomer, unassigned) [Example 90] . Its Ki was 4.16

Sample O=C(c1ccc(Cl)cc1)N1CCC(COc2cnc(-c3ccc(Cl)cc3)cn2)(C(=O)O)C1 (single isomer, unassigned) [Example 34] ; Ki observed: 0.743

Kindly note the recorded Ki for COc1ccccc1C(=O)N1CCC(COc2ccc(-c3ccc(F)cc3)cc2)(C(=O)O)C1 (single isomer, unassigned) [Example 69] , which is 309

According to the records, this compound COc1ccccc1C(=O)N1CCC(COc2ccc(-c3ccc(F)cc3)cc2)(C(=O)O)C1 (single isomer, unassigned) [Example 68] displays Ki of 14.6

Consider CCOc1ccccc1C(=O)N1CCC(COc2ccc(-c3ncc(Cl)cn3)cc2)(C(=O)O)C1 (single isomer, unassigned) [Example 56] . Its measured Ki is 466

Entry O=C(c1ccc(F)cc1)N1CCC(COc2ccc(-c3ccc(Cl)cc3)nc2)(C(=O)O)C1 (single isomer, unassigned) [Example 7] — recorded Ki = 2.97

So for COc1ccc(C(=O)N2CCC(COc3ccc(-c4ccc(Cl)cn4)cc3)(C(=O)O)C2)cc1 (single isomer, unassigned) [Example 46] , the logged Ki turned out to be 23.7

Please fill in: Ki reported for O=C(c1ccc(F)cc1)N1CCC(COc2cccc(F)c2F)(C(=O)O)C1 (single isomer, unassigned) [Example 14] = 522

response.value for N#Cc1ccc(-c2ccc(OCC3(C(=O)O)CCN(C(=O)c4ccc(Cl)cc4)C3)cc2)cc1 (single isomer, unassigned) [Example 26] (field: Ki) = 0.0376

Per the records, this compound ( O=C(c1ccc(F)cc1)N1CCC(COc2cnc(-c3ccc(Cl)cc3)cn2)(C(=O)O)C1 (single isomer, unassigned) [Example 10] ) has Ki equal to 0.741

Ki measured on COc1ccc(C(=O)N2CCC(COc3ccc(-c4ccc(Cl)cc4)nc3)(C(=O)O)C2)cc1 (single isomer, unassigned) [Example 45] = 170

For this compound ( O=C(Nc1ccccc1Cl)N1CCC(COc2ccc(-c3ccc(F)cc3)cc2)(C(=O)O)C1 (single isomer, unassigned) [Example 100] ), measured Ki is 518

response.value for COc1ccccc1C(=O)N1CCC(COc2ccc(-c3ncc(Cl)cn3)cc2)(C(=O)O)C1 (single isomer, unassigned) [Example 73] (field: Ki) = 459

The reported Ki of the compound O=C(c1ccc(Cl)cc1)N1CCC(COc2ccc(-c3ncc(Cl)cn3)cc2)(C(=O)O)C1 (single isomer, unassigned) [Example 31] was 282

Kindly note the recorded Ki for COc1cccc(NC(=O)N2CCC(COc3ccc(-c4ccc(F)cc4)cc3)(C(=O)O)C2)c1 (single isomer, unassigned) [Example 98] , which is 260

According to the records, this compound O=C(Nc1ccc(Cl)cc1)N1CCC(COc2ccc(-c3ccc(F)cc3)cc2)(C(=O)O)C1 (single isomer, unassigned) [Example 101] displays Ki of 3.59

Per the records, this compound ( COc1ccccc1C(=O)N1CCC(COc2cnc(-c3ccc(Cl)cc3)nc2)(C(=O)O)C1 (single isomer, unassigned) [Example 75] ) has Ki equal to 504

Ki recorded for this compound, COc1ccccc1C(=O)N1CCC(COc2ccc(-c3ccc(C#N)cc3)nc2)(C(=O)O)C1 (single isomer, unassigned) [Example 62] , is 868

The recorded Ki for entry COc1ccc(C(=O)N2CCC(COc3ccc(-c4ccc(Cl)cn4)cc3)(C(=O)O)C2)cc1 (single isomer, unassigned) [Example 47] equals 226

Form field Ki, entry COc1cccc(NC(=O)N2CCC(COc3ccc(-c4ccc(F)cc4)cc3)(C(=O)O)C2)c1 (single isomer, unassigned) [Example 97] : 1.89

The compound listed as COc1ccc(NC(=O)N2CCC(COc3ccc(-c4ccc(F)cc4)cc3)(C(=O)O)C2)cc1 (single isomer, unassigned) [Example 96] has a reported Ki of 178

The compound listed as COc1ccccc1C(=O)N1CCC(COc2ccc(-c3ccc(F)cc3)nc2)(C(=O)O)C1 (single isomer, unassigned) [Example 76] shows Ki equal to 158

# Ki (compound: O=C(C1CC1)N1CCC(COc2ccc(-c3ccc(F)cc3)cc2)(C(=O)O)C1 (single isomer, unassigned) [Example 84] ) is 438

Consider O=C(c1ccc(F)cc1)N1CCC(COc2cnc(-c3ccc(Cl)cc3)nc2)(C(=O)O)C1 (single isomer, unassigned) [Example 6] . Its measured Ki is 102

Ki recorded for this compound, COc1ccccc1C(=O)N1CCC(COc2ccc(-c3ccc(C#N)cc3)nc2)(C(=O)O)C1 (single isomer, unassigned) [Example 61] , is 26.2
